B1: TSN (parent)
chain: FLAAEQDIREEIRKVVQSLEQTAR

- Variants of: B1
- Experimental protocol: protein stability index of a GFP-peptide fusion (GPS, HEK-293T) (PSI 1-6); higher = more stable;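 note: lentivirally expressed fusions sorted by FACS into six bins by GFP to DsRed ratio, PSI derived from sequencing read proportions per bin multiplied by bin number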
- Details: c terminus: a fixed tail appended
Could you label it Satisfied if measured protein stability index is 2 or higher, and Not satisfied otherwise?

{"Residue string": "FLAAEQDIREEIRKVVQSQEQTAR [L19Q]", "Discrete label": "Satisfied"}
{"Residue string": "FLAAEQCIREEIRKVVQSLEQTAR [D7C]", "Discrete label": "Satisfied"}
{"Residue string": "FLAAEQDIREERRKVVQSLEQTAR [I12R]", "Discrete label": "Satisfied"}
{"Residue string": "FLAAEQDEREEIRKVVQSLEQTAR [I8E]", "Discrete label": "Satisfied"}
{"Residue string": "FLAAEQDIFEEIRKVVQSLEQTAR [R9F]", "Discrete label": "Satisfied"}
{"Residue string": "FLAAEQAIREEIRKVVQSLEQTAR [D7A]", "Discrete label": "Satisfied"}
{"Residue string": "FLAAEQDIREEIRKVVQSLEQTWR [A23W]", "Discrete label": "Satisfied"}
{"Residue string": "FLAAEQDMREEIRKVVQSLEQTAR [I8M]", "Discrete label": "Not satisfied"}
{"Residue string": "FFAAEQDIREEIRKVVQSLEQTAR [L2F]", "Discrete label": "Not satisfied"}
{"Residue string": "FLAAEQDIREEIRKPVQSLEQTAR [V15P]", "Discrete label": "Satisfied"}
{"Residue string": "FLAAEQDIREEIRKVVQSLEQTGR [A23G]", "Discrete label": "Satisfied"}
